These data points were gathered from PubChem BioAssay AID1362.

# test: growth inhibition of WT strain, primary screen, mitochondrial fusion inhibitor project, WT and mutant strains, chemical genetic (AID 1362)
# condition label: mitochondrial fusion phenotypic screen, mutant strain inhibition; at 10 µM
About 4,000 (2.1%) of roughly 190,000 compounds were called active. For the sample, actives were picked, then their nearest neighbours and some compounds at random.
Please go through the items and note down their inhibition.
Number in %, nothing else.

Returns the measured inhibition for the input compound. Input: "Cn1c(=O)c2c(nc(SCC(=O)Nc3ccccc3N3CCCCC3)n2C)n(C)c1=O"
-10.4

Returns the measured inhibition for the input compound. Input: "S=C(NN=C1CCN(Cc2ccccc2)CC1)NC1CCCCC1"
25

Returns the measured inhibition for the input compound. Input: CC(Oc1ccc2ccccc2c1)C(=O)NNC(=S)NC(=O)c1ccco1 (stereo unspecified)
80.5

Returns the measured inhibition for the input compound. Input: S=C(NCCc1ccccc1)NCC1CCCO1 (stereo unspecified)
7.51

Returns the measured inhibition for the input compound. Input: "O=C(Cc1ccccc1)NNC(=O)C1CCN(c2ncccn2)CC1"
-9.74

Returns the measured inhibition for the input compound. Input: "CC(=O)N(CCCN(C)C)c1nc2ccc(C)cc2s1"
-0.04

Returns the measured inhibition for the input compound. Input: COc1ccc(NC(=O)COc2ccc(C(=O)OCC(=O)N(C)C3CCS(=O)(=O)C3)cc2OC)cc1 (stereo unspecified)
1.53

Returns the measured inhibition for the input compound. Input: CC1=CC2=NC(=O)CC(C)(C(=O)N(CC(=O)NC(C)(C)C)Cc3ccccc3)N2C=C1 (stereo unspecified)
-9.57

Returns the measured inhibition for the input compound. Input: "CN(CCOc1ccc(Br)cc1)CC(=O)Nc1cccc(S(=O)(=O)NC2=NCCC2)c1"
-2.03

Returns the measured inhibition for the input compound. Input: "Cc1ccccc1NC(=O)NC1(C(=O)N2CCCC2)CCCCC1"
7.72

Returns the measured inhibition for the input compound. Input: "N#C/C(=C(\O)C(F)(F)F)c1nnc2n1CCCCC2"
13.5

====

# test: growth inhibition of WT strain, primary screen, mitochondrial fusion inhibitor project, WT and mutant strains, chemical genetic (AID 1362)
# condition label: mitochondrial fusion phenotypic screen, WT strain, growth inhibition; at 10 µM
Out of some 190,000 compounds screened, about 4,000 (2.1%) were called active. Cut-off read from the data, not from the text of the source: active = inhibition above about 58%; inactive = the rest, inconclusive results apart; tested in S. cerevisiae. This is one part of a sample in which actives are shown more often than they occur.
Please reply with one of these outcomes: Y for active, N for inactive

Look up the recorded call for "N#Cc1cccc(Nc2c3c(nc4ccccc24)CCCC3)c1" in this test.
N

Look up the recorded call for "CCCCNC(=O)N1CCN(S(C)(=O)=O)CC1" in this test.
N

Look up the recorded call for "O=S(=O)(Cc1ccccc1)c1nc2ccccc2n1Cc1ccccn1" in this test.
N

Look up the recorded call for "CCOc1ccccc1NC(=O)Nc1cc(OC)ccc1OC" in this test.
N

Look up the recorded call for Cc1ccccc1C(=O)OC1OC(=O)C(Cl)=C1Nc1ccccc1 (centres undefined) in this test.
N

Look up the recorded call for "COc1ccc(C(=O)NNC(=O)c2cc(C)[nH]n2)cc1" in this test.
N

Look up the recorded call for OC(CN=c1sc2ccccc2n1CC(O)COc1ccccc1)COc1ccccc1 (centres undefined) in this test.
Y

Look up the recorded call for Cc1ccc(NC2=C(Cl)C(=O)OC2OC(=O)c2ccccc2C)cc1 (centres undefined) in this test.
Y

Look up the recorded call for "CC1CCN(CCC(=O)Nc2ccccc2)CC1" in this test.
N

Look up the recorded call for "COc1ccccc1-n1c(=S)[nH]c2c(sc(=S)n2-c2ccc(C)cc2C)c1=O" in this test.
N

Look up the recorded call for "Brc1ccc2nc(N3CCCC3)sc2c1" in this test.
N

Look up the recorded call for "Cc1nnsc1C(=O)N/N=C/c1cccc(C(F)(F)F)c1" in this test.
N

Look up the recorded call for "O=C(CCN1C(=O)c2ccccc2C1=O)Nc1ccncc1" in this test.
N

Look up the recorded call for "CCOc1ccc(-c2n[nH]c(C)c2-c2ccccn2)c(O)c1" in this test.
N

Look up the recorded call for "CCOc1ccccc1Oc1cn[nH]c1-c1ccc(OC)cc1O" in this test.
Y

Look up the recorded call for OC(COc1ccccc1)Cn1cc(Br)cn1 (centres undefined) in this test.
N

Look up the recorded call for "COc1ccc(NS(=O)(=O)c2ccc(O)c(C(=O)OCC(=O)NC3CCCCC3)c2)cc1" in this test.
N

Look up the recorded call for "COc1cc(Cl)c(C)cc1NC(=O)CSc1nnc(-c2cccnc2)n1Cc1ccco1" in this test.
N

Look up the recorded call for O=C(CSc1ccc(-c2ccccc2)nn1)NCC1CCCO1 (centres undefined) in this test.
N

Look up the recorded call for "O=C(CCN1c2ccccc2Sc2ccccc21)Nc1ccccc1" in this test.
Y

Look up the recorded call for "O=C(COc1ccc(S(=O)(=O)N2CCCCC2)cc1)NCc1ccccn1" in this test.
N

Look up the recorded call for "COC(=O)CCNC(=O)c1ccc2[nH]c(C)c(C)c2c1" in this test.
N

Look up the recorded call for "CC(C)(C)NC(=O)NC(=O)COC(=O)Cc1c(F)cccc1Cl" in this test.
N

Look up the recorded call for OCCCC1CCCCN1Cc1nc(Cc2ccccc2Cl)no1 (centres undefined) in this test.
N

====

# test: growth inhibition of WT strain, primary screen, mitochondrial fusion inhibitor project, WT and mutant strains, chemical genetic (AID 1362)
# condition label: mitochondrial fusion phenotypic screen, WT strain, growth inhibition; at 10 µM
Out of some 190,000 compounds screened, about 4,000 (2.1%) were called active. Cut-off read from the data, not from the text of the source: active = inhibition above about 58%; inactive = the rest, inconclusive results apart; tested in S. cerevisiae. This is one part of a sample in which actives are shown more often than they occur.
Please reply with one of these outcomes: active, inactive

Look up the recorded call for CC1CC2=C(CC1/C=N/NC(N)=S)C(C)(C)CCC2 (stereo unspecified) in this test.
active

Look up the recorded call for COC(=O)C1=C(Nc2ccc(OC)cc2)C=C(C)C(C(=O)OC)C1c1ccc(C)cc1 (stereo unspecified) in this test.
inactive

Look up the recorded call for COc1cc(NC(=S)N2CCCC(C)C2)c(OC)cc1Cl (stereo unspecified) in this test.
inactive

Look up the recorded call for "CCC1(CC)Cc2ccccc2-c2nc3ccccc3c(=O)n21" in this test.
inactive

Look up the recorded call for COC(=O)C1=C(Nc2ccc(C)cc2)C=C(C)C(C(=O)OC)C1c1ccc(F)cc1 (stereo unspecified) in this test.
active

Look up the recorded call for COc1ccc(Cl)cc1NC(=O)C(C)N1CCc2ccccc21 (stereo unspecified) in this test.
inactive

Look up the recorded call for "CCCNC(=O)Nc1ccccc1C(=O)Nc1ccc(OC)cc1" in this test.
inactive

Look up the recorded call for "O=c1c2ccccc2nc2n1C1(CCCCC1)Cc1ccccc1-2" in this test.
active

Look up the recorded call for CN(NC(=O)C1CC(=O)N(c2ccccc2)C1)C1=NS(=O)(=O)c2ccccc21 (stereo unspecified) in this test.
inactive

Look up the recorded call for "c1cncc(-c2nnc3n2C2(CCCCC2)Cc2ccccc2-3)c1" in this test.
inactive

Look up the recorded call for "CCCNC(=O)c1ccccc1NC(=O)CSCc1ccc(OC)cc1" in this test.
active

====

# test: growth inhibition of WT strain, primary screen, mitochondrial fusion inhibitor project, WT and mutant strains, chemical genetic (AID 1362)
# condition label: mitochondrial fusion phenotypic screen, mutant strain inhibition; at 10 µM
The campaign covered roughly 190,000 compounds. About 4,000 (2.1%) were called active. Many of the other results were omitted from the sample, so actives are more common in it than they were.
Respond with label 1 for inhibition values of 8% and above, label 0 for values below.

Answer whether inhibition of "Clc1ccc(-c2ncc3ccccn23)c(Cl)c1" is greater than or equal to 8%.
label 0

Answer whether inhibition of "Clc1ccc(COn2c(-c3ccc(Cl)cc3Cl)nc3ncccc32)cc1" is greater than or equal to 8%.
label 1

Answer whether inhibition of "COn1c(-c2ccc(Cl)cc2Cl)nc2ncccc21" is greater than or equal to 8%.
label 0

Answer whether inhibition of "CCn1c(=S)[nH]c2sc3c(c2c1=O)CCCCC3" is greater than or equal to 8%.
label 1

Answer whether inhibition of "CN1CCN(CCNC(=O)Nc2ccc([N+](=O)[O-])cc2)CC1" is greater than or equal to 8%.
label 0

====

Please go through the items and note down their inhibition.
# test: growth inhibition of WT strain, primary screen, mitochondrial fusion inhibitor project, WT and mutant strains, chemical genetic (AID 1362)
# condition label: mitochondrial fusion phenotypic screen, WT strain, growth inhibition; at 10 µM; stronger effect = higher value
Hit rate of the full screen: of about 190,000 compounds, about 4,000 (2.1%) were called active. This excerpt belongs to a sample that is enriched for actives.
Number in %, nothing else.

Returns the measured inhibition for the input molecule. Input: "CS(=O)(=O)N1CCc2cc(C(=O)Nc3ccccc3)ccc21"
-2.67

Returns the measured inhibition for the input molecule. Input: "COc1ccc(OC)c2c(N)c(C#N)c(C(F)(F)C(F)(F)F)nc12"
61.3

Returns the measured inhibition for the input molecule. Input: "COc1ccccc1NC(=S)N1CCC(NC(=O)C23CC4CC(CC(C4)C2)C3)CC1"
-5.17

Returns the measured inhibition for the input molecule. Input: "COc1ccccc1NC(=S)NC(=O)C(C)C"
48

Returns the measured inhibition for the input molecule. Input: "O=C(O)CSc1nccc2ccccc12"
-2.02

Returns the measured inhibition for the input molecule. Input: "C/C(=C\C(=O)c1ccccc1)Nc1cccc(O)c1"
85.2

Returns the measured inhibition for the input molecule. Input: "CC(C)NC(=S)N1CCN(C(c2ccccc2)c2ccccc2)CC1"
64.7

Returns the measured inhibition for the input molecule. Input: "O=C(Nc1cccc(O)c1)c1ccc(C(=O)c2ccccc2)o1"
-18.9

Returns the measured inhibition for the input molecule. Input: "CC(C)NC(=S)N1CCN(S(C)(=O)=O)CC1"
-2.96

Returns the measured inhibition for the input molecule. Input: COCC(C)NCc1cc(Br)ccc1OC (configuration not stated)
7.52

Returns the measured inhibition for the input molecule. Input: CC(C)OCC(O)CN1CCN(C(c2ccccc2)c2ccccc2)CC1 (configuration not stated)
11

Returns the measured inhibition for the input molecule. Input: "COc1ccc(-c2cc(-c3ccc(N)cc3)nc(N)c2C#N)cc1OC"
42.1
